- TEST DESCRIPTION: Photochromic properties of lens samples (2 mm, compound in the mass of cross-linked matrix I or II) exposed to UV radiation from a xenon lamp
- Type: physicochemical
- RECORDED CONDITIONS: lens sample, Matrix I (homopolymer of DIACRYL 121)
ENDPOINT LABEL: OID : optical induced density (D∞-D0)

1. COc1ccc(C2(c3ccc(OC)cc3OC)C=Cc3c(c(C(=O)N4CCOCC4)cc4ccccc34)O2)c(OC)c1 :: 1.303
2. CN(C)c1ccc(C2(c3ccc(N(C)C)c4ccccc34)C=Cc3c(c(C(=O)N4CCOCC4)cc4ccccc34)O2)cc1 (stereo not shown) :: 0.325
3. COc1ccc(C2(c3ccc(OC)cc3OC)C=Cc3c(c(C(=O)N4CCOCC4)cc4ccccc34)O2)cc1 (stereo not shown) :: 1.931
4. COc1ccc(C2(c3ccc(OC)cc3OC)C=Cc3c(c(C(=O)N4CCc5ccccc54)cc4ccccc34)O2)c(OC)c1 :: 1.063
5. COc1ccc(C2(c3ccc(OC)c(OC)c3)C=Cc3c(c(C(=O)N4CCOCC4)cc4ccccc34)O2)c(OC)c1 (stereo not shown) :: 0.746
6. Cc1ccc(NC(=O)c2cc3ccccc3c3c2OC(c2ccccc2)(c2ccccc2)C=C3)cc1 :: 0.315
7. COc1ccc(C2(c3ccc(N4CCCCC4)cc3)C=Cc3c(c(C(=O)N4CCCCC4)cc4ccccc34)O2)c(OC)c1 (stereo not shown) :: 0.637
